- ASSAYED_SYSTEM: human MAGL (Homo sapiens, UniProt Q99685)
- Sequence (Q99685 1-303): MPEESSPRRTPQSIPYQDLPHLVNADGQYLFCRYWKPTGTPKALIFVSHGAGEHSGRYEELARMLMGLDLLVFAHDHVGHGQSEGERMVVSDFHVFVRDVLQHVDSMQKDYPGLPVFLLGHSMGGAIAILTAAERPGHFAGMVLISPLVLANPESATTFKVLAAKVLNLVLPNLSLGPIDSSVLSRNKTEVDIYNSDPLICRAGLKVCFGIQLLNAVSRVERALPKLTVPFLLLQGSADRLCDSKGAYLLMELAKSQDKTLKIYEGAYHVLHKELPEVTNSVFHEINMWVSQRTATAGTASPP
- ASSAY_NAME: In vitro MAGL inhibition assay (2-AG hydrolysis followed by mass spectrometry)
- Type: biochemical
- PROTOCOL_CONDITIONS: Table 1; n=1 to 3; read-out: hMAGL IC50
Task for the reader: assign each of the following molecules its reported IC50.
Hi! Could you send only the number? It should be in nM, unit omitted.

**Q:** May I ask what IC50 has been recorded for O=C(NCCOc1ccccc1COCC1CN(C(=O)N2CC3(COC(=O)N3)C2)C1)OCc1ccccc1 [Compound 5] ?
**A:** 0.29

**Q:** What does the record list as IC50 for O=C1CO[C@H]2CCN(C(=O)N3CC(COCc4cccc(OCCNC(=O)OCc5ccccc5)c4)C3)C[C@H]2N1 [Compound 2] ?
**A:** 30.8

**Q:** Which IC50 is listed for O=C1NC2(CO1)CN(C(=O)N1CC3(CC(Cc4ccccc4OCCNc4ccc([N+](=O)[O-])c5c4NON5)C3)C1)C2 [Compound 8] ?
**A:** 0.09

**Q:** Which IC50 value is on record for O=C1CO[C@H]2CCN(C(=O)N3CC(COCc4ccccc4)C3)C[C@H]2N1 [Compound 1] ?
**A:** 379

**Q:** Could you share which IC50 value was measured for O=C(NCCOc1ccccc1COCC1CN(C(=O)OC(C(F)(F)F)C(F)(F)F)C1)OCc1ccccc1 [Compound 7] ?
**A:** 0.65

**Q:** Data request, read-out IC50, for O=C1NC2(CO1)CN(C(=O)N1CC(COCc3ccccc3OCCNc3ccc([N+](=O)[O-])c4nonc34)C1)C2 [Compound 6]
**A:** 0.72

**Q:** Query: IC50; subject: O=C1CO[C@H]2CCN(C(=O)N3CC(COCc4ccccc4OCCNC(=O)OCc4ccccc4)C3)C[C@H]2N1 [Compound 3]
**A:** 2.14
